# Test system: HCT-15 colon
# protocol.text: NCI-60 one-dose screen, 48 h
# cond: 10 µM unless noted
Compounds without any hit were thinned out: in the full panel of roughly 83,000, 20% have a hit. Activity calls are given as the source filed them. How the source made its calls: active means growth percent below 10; inactive means the rest.
Outcomes: active, inactive

compound	discrete.label
COc1cc2nc(-c3ccc(C(F)(F)F)cc3)cc(OCCN3CCC(O)CC3)c2cc1OC	inactive
O=C(OCc1nc2nc(Cl)nc(N3CCOCC3)c2[nH]1)n1ccnc1	active
Cc1c2c(cc[n+]1Cc1ccccc1)c1ccc(OCC3CCCCC3)cc1n2CC1CCCCC1	active
CCN(CCNc1cc(OC)cc2cccnc12)CCc1ccccc1	inactive
COc1cccc(-c2nc3occn3c2-c2ccnc(NCCCNS(=O)(=O)c3cccc(F)c3)n2)c1	inactive
CC1=CC2(C)/C=C(C)/C=C\CC(O)/C=C3/C=CC(=C4C(=O)OC2(CC1C)C4=O)OC3 (centres undefined)	active
Cc1c2c(cc[n+]1Cc1ccc(F)cc1)c1ccc(OCc3cccc(F)c3)cc1n2Cc1cccc(F)c1	inactive
Clc1ccc(C2CC(c3cccc(Nc4ccncc4)c3)=NN2c2ccccc2)cc1 (centres undefined)	active
[2H]C1([2H])NC([2H])([2H])C([2H])([2H])N(c2ccc(Nc3ncc4cc(C(=O)N(C)C)n(C5CCCC5)c4n3)nc2)C1([2H])[2H]	inactive

###

# Test system: NCI-H322M lung
# protocol.text: NCI-60 one-dose screen, 48 h (100 = growth as untreated, 0 = no growth, -100 = all killed)
# cond: 10 µM unless noted
Compounds without any hit were thinned out: in the full panel of roughly 83,000, 20% have a hit.
Mark t for growth under 50%, f if at or over.

test.smiles	study.target	discrete.label
COc1ccc(C(=O)c2cc(C)c(OC)c(C)c2)c(OC)c1O	NCI-H322M lung	t
c1ccc(-c2nn(-c3ccccc3)[n+](-c3ccccc3-c3ccccc3)n2)cc1	NCI-H322M lung	t
NC(=O)c1ccc[n+](CC(=O)N2CCN(c3cc4c(cc3F)c(=O)c(C(=O)O)cn4C3CC3)CC2)c1	NCI-H322M lung	f
COc1ccc(C(=O)c2cc3c(N)c(C(=O)Nc4ccc(Cl)cc4)sc3nc2C)cc1	NCI-H322M lung	f
COc1ccc(NC(=O)c2sc3nc(C)c(C(=O)CCc4cccc(OC)c4)cc3c2N)cc1	NCI-H322M lung	t

###

# System: UACC-62 melanoma
# protocol.text: NCI-60 one-dose screen, 48 h (100 = growth as untreated, 0 = no growth, -100 = all killed)
# cond: 10 µM unless noted
Compounds without any hit were thinned out: in the full panel of roughly 83,000, 20% have a hit.

compound	study.target	uom	growth
CN(C)C(=O)OCc1nc2c(N3CCOCC3)nc(-c3ccccc3)nc2n1C	UACC-62 melanoma	%	-92
Fc1ccc2nc3c(cc2c1)CSc1nnc(-c2ccc[nH]c2=S)n1N3	UACC-62 melanoma	%	91.7
COc1ccc(C(=O)c2cc(C)c(OC)c(C)c2)c(OC)c1O	UACC-62 melanoma	%	30.3
CCCCCCOc1ccc(C(=N)N(CCCC)CCCC)c2ccccc12	UACC-62 melanoma	%	-86
Nc1cc(N)c2cccnc2c1O	UACC-62 melanoma	%	43
COc1cc(NCC(O)CN(CC(C)C)CC(C)C)c2nc(C)ccc2c1 (stereo unspecified)	UACC-62 melanoma	%	88.9
CCCCc1ccc(Nc2nnc(SCC(=O)NC(=O)NCC)s2)cc1	UACC-62 melanoma	%	78.2
CCCCOc1ccc(/C=N/Nc2cc(C)nc3ccc(Cl)cc23)cc1	UACC-62 melanoma	%	77.8
CCc1c(Nc2ccc(C)cc2)nc(N)[nH]c1=O	UACC-62 melanoma	%	87.2
CCCC1C(C(=O)OCC)=C(N)Oc2cc(O)ccc21 (stereo unspecified)	UACC-62 melanoma	%	94.8
O=C(O)/C=C\C(=O)N1C/C(=C\c2ccccc2Cl)C(=O)/C(=C/c2ccccc2Cl)C1	UACC-62 melanoma	%	-60.3
